Assignment: determine reported pIC50 for the given molecules.
Tested target: CDK2/CyclinE1 (Homo sapiens)
Construct: purchased SignalChem C29-18G
Run description: Assay for inhibition of CDK2/CyclinE1 (Caliper microfluidic kinase assay)
Format: biochemical
Conditions used: CDK2/CyclinE1, 100 μM ATP; read-out: CDK2 IC50
pIC50: −log10 of the molar value.

## Input Given the entry `CC(C)c1cnn2ccc(-c3ccnc(Nc4ccc(N5CCN(C6COC6)CC5=O)cn4)n3)cc12` , report its measured pIC50.
## Output 7.00 to 8.00

## Input Given the entry CC(C)n1cnc2c(F)nc(-c3nc(Nc4ccc(N5CCC(N(C)C)CC5=O)cn4)ncc3Cl)cc21 (stereo not drawn) , report its measured pIC50.
## Output 6.00 to 7.00

## Input Given the entry `CC(C)n1cnc2c(F)nc(-c3ccnc(Nc4ccc(N5CCN(C6CC6)CC5)cn4)n3)cc21` , report its measured pIC50.
## Output 6.00 to 7.00

## Input Given the entry CC(C)c1cnn2ccc(-c3ccnc(Nc4ccc(N5CCC(N6CCNCC6)CC5=O)cn4)n3)cc12 (stereo not drawn) , report its measured pIC50.
## Output 7.00 to 8.00

## Input Given the entry `CCN1CCC(Cn2ccc(Nc3nccc(-c4cc5c(ncn5C(C)C)c(OC)n4)n3)n2)CC1` , report its measured pIC50.
## Output < 6.00

## Input Given the entry `COc1nc(-c2nc(Nc3ccc(C(=O)N4CCC(N)CC4)c(C)n3)ncc2F)cc2c1nc(C)n2C(C)C` , report its measured pIC50.
## Output < 6.00

## Input Given the entry `CC(C)c1cnn2ccc(-c3ccnc(Nc4cccc(N5CCNCC5=O)c4)n3)cc12` , report its measured pIC50.
## Output 7.00 to 8.00

## Input Given the entry `CC(C)n1cnc2c1CN(c1nc(Nc3ccc(S(N)(=O)=O)nc3)ncc1F)CC2` , report its measured pIC50.
## Output > 8.00

## Input Given the entry CC(C)n1cnc2c(F)nc(-c3ccnc(Nc4ccc(N5CCCC(N)C5=O)cc4)n3)cc21 (stereo not drawn) , report its measured pIC50.
## Output 7.00 to 8.00

## Input Given the entry CN(C)C1CCN(c2ccc(Nc3nccc(-c4ccn5ncc(C(C)(C)C)c5c4)n3)nc2)C(=O)C1 (stereo not drawn) [Synthetic Example 175] , report its measured pIC50.
## Output > 8.00

## Input Given the entry CC(C)n1cnc2c(F)nc(-c3ccnc(Nc4ccc(N5CCC(C)(N)CC5=O)cn4)n3)cc21 (stereo not drawn) , report its measured pIC50.
## Output 7.00 to 8.00

## Input Given the entry CC(C)n1cnc2c(F)nc(-c3ccnc(Nc4ccc(N5CCC(N(C)C)CC5=O)cn4)n3)cc21 (stereo not drawn) , report its measured pIC50.
## Output 7.00 to 8.00

## Input Given the entry CC(C)c1cnn2ccc(-c3ccnc(Nc4ccc(N5CCC(NCCF)CC5=O)cn4)n3)cc12 (stereo not drawn) , report its measured pIC50.
## Output > 8.00

## Input Given the entry CC(C)(C)c1cnn2ccc(-c3ccnc(Nc4ccc(N5CCCC(N)C5=O)cc4)n3)cc12 (stereo not drawn) , report its measured pIC50.
## Output > 8.00

## Input Given the entry CC(C)c1cnn2ccc(-c3nc(Nc4ccc(CN5CCN6CCCC6C5)cn4)ncc3F)cc12 (stereo not drawn) , report its measured pIC50.
## Output < 6.00

Source listed as patent US20220296595A1.
